Test: pharmacokinetics of Compound 001 in rats
Format: in vivo
Details: rat, plasma; high dose (30 mg/kg once daily oral gavage, 6 days); read-out: minimum drug exposure for the entire dosing period
valueKind: concentration at 6 days

query: Which concentration at 6 days value belongs to Nc1ccc(-c2cccs2)cc1NC(=O)c1ccc2nc(N3CCNCC3)ccc2c1 [Compound 001] ?
result: ≥ 5 µM

###

Target: HDAC2 (Homo sapiens)
Sequence (Q92769 whole entry): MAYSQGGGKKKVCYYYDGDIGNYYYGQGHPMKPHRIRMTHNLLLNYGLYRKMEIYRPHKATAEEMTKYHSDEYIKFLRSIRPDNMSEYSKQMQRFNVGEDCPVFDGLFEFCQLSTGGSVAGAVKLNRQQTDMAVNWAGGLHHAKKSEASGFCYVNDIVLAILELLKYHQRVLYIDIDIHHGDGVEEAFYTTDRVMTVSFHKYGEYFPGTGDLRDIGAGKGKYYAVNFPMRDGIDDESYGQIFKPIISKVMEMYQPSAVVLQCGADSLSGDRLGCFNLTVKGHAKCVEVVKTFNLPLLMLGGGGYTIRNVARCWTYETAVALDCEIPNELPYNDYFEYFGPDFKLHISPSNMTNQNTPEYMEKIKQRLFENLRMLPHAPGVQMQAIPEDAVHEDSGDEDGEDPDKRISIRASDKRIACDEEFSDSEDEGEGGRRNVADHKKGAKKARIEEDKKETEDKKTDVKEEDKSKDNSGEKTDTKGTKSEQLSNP
Assay: in vitro biochemical HDAC inhibition assay
Conditions: Table 2; read-out: IC50 HDAC2
valueKind: pIC50
Answers are plain numbers, as −log10 of the molar value.

Some compounds with known pIC50 results, for comparison:
| molSmiles | targetUnderTest | pIC50 |
| --- | --- | --- |
| Nc1sc(-c2ccccc2)cc1NC(=O)c1cnc2cc(N3CCNCC3)ccc2c1 | HDAC2 (Homo sapiens) | 6.71 |
| COCCN(C)c1cc2ncc(C(=O)Nc3cc(-c4ccccc4)ccc3N)cc2cc1C1CC1 | HDAC2 (Homo sapiens) | 5.91 |
| COCCNc1cc2ncc(C(=O)Nc3cc(-c4cccs4)ccc3N)cc2cc1C1CC1 | HDAC2 (Homo sapiens) | 6.61 |

Proceed to the following item.
query: Which pIC50 value belongs to `Nc1ccc(-c2cccs2)cc1NC(=O)c1ccc2nc(N3CCNCC3)ccc2c1` ?
result: 7.82

###

I'd be grateful if you could share measured pIC50 for these entries.
Molecular target: HDAC2 (Homo sapiens)
Experiment: in vitro biochemical HDAC inhibition assay
Conditions: Table 4; read-out: IC50 HDAC2
One number for each entry, as −log10 of the molar value.

| compound | targetUnderTest | reportedMeasurement |
| --- | --- | --- |
| Nc1ccc(-c2cccs2)cc1NC(=O)/C=C/c1ccc(N2CCNCC2)c(C2CC2)c1 [Compound 2002] | HDAC2 (Homo sapiens) | 7.66 |
| Nc1ccc(-c2cccs2)cc1NC(=O)c1cnc(NC2CCN(C(=O)N3CCOCC3)CC2)nc1 [Compound 2007] | HDAC2 (Homo sapiens) | 7.26 |

Field: pIC50. Fill in for each record below.
1. CC1(Nc2ncc(C(=O)Nc3cc(-c4cccs4)ccc3N)cn2)CCN(C(=O)N2CCCC2)CC1 [Compound 2005]
2. Nc1ccc(-c2cccs2)cc1NC(=O)c1ccc(N2CCNCC2)cc1C1CC1 [Compound 2004]
3. CN1CCN(C(=O)N2CCC(C)(Nc3ncc(C(=O)Nc4cc(-c5cccs5)ccc4N)cn3)CC2)CC1 [Compound 2009]
4. Nc1ccc(-c2ccccc2)cc1NC(=O)/C=C/c1ccc(N2CCNCC2)c(C2CC2)c1 [Compound 2001]
5. CC1(Nc2ccc(C(=O)Nc3cc(-c4ccncc4)ccc3N)cc2)CCN(C(=O)N2CCOCC2)CC1 [Compound 2010]
6. CN1CCN(c2ccc(C(=O)Nc3cc(-c4ccccc4)ccc3N)cc2C2CC2)CC1 [Compound 2003]
7. CC1(Nc2ncc(C(=O)Nc3cc(-c4cccs4)ccc3N)cn2)CCN(C(=O)N2CCNCC2)CC1 [Compound 2008]

result:
1: 7.85; 2: 8.05; 3: 7.50; 4: 7.49; 5: 7.77; 6: 7.10; 7: 7.59

###

Test: pharmacokinetics of Compound 001 in cynomolgus monkeys
Format: in vivo
Conditions: cynomolgus monkey, plasma; low dose (25 mg/kg once daily oral gavage, 5 days); read-out: minimum drug exposure for the entire dosing period
valueKind: concentration at 5 days

query: Which concentration at 5 days value belongs to `Nc1ccc(-c2cccs2)cc1NC(=O)c1ccc2nc(N3CCNCC3)ccc2c1` ?
result: ≥ 1000 nM
